# pIC50 per record follows
# TESTED_SYSTEM: HSD2 (Homo sapiens (Human), UniProt P80365)
# Sequence (P80365 whole entry): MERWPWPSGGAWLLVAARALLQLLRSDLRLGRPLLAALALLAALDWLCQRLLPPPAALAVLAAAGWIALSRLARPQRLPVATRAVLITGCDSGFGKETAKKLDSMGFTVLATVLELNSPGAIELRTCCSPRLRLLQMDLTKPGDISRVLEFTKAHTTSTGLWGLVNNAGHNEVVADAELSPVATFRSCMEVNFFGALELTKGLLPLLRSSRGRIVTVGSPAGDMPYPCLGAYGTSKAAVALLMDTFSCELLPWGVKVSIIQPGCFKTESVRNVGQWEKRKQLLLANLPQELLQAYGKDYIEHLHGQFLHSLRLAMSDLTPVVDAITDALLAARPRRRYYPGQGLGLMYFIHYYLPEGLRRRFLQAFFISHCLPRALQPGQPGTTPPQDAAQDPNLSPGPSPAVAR
# METHOD_NOTES: HSD2 activity: cortisol conversion in human descending colon organoid monolayer cultures (Example 112)
# CONDITION_DETAILS: human descending colon epithelial cultures on transwells; 30 minute pre-incubation, then 40 nM cortisol for four hours; cortisol HTRF assay
Keep it simple and answer with nothing but the number.

MOLECULE: Cc1oc(=O)oc1COC(=O)[C@]1(C)[C@@H](OC(=O)CO)CC[C@@]2(C)[C@H]1CC[C@]1(C)[C@@H]2C(=O)C=C2[C@@H]3C[C@@](C)(C(=O)O)CC[C@]3(C)CC[C@]21C
TESTED_SYSTEM: HSD2 (Homo sapiens (Human), UniProt P80365)
pIC50: 6.8

Prompt: // returns reported pIC50 for input CC(=O)O[C@]1(C)CC[C@@]2(C)[C@@H](CC[C@]3(C)[C@@H]2C(=O)C=C2[C@@H]4C[C@@](C)(C(=O)O)CC[C@]4(C)CC[C@]23C)[C@]1(C)C(=O)OCc1oc(=O)oc1C
Completion: 6.3
